Test system: Shigella flexneri
Assay: growth AUC normalised to DMSO control (fraction of control); higher = less growth inhibition, active = hit call of the paper
Conditions: 20 µM
Counter-ions that a name gives are not always drawn.
Provide the reported growth AUC normalised to DMSO control of each item.
Give bare numbers.

>>> data_value("Cc1ncc(CO)c(CO)c1O [Pyridoxine hydrochloride]")
1.01
>>> data_value("CSc1ccc2c(c1)N(CCC1CCCCN1C)c1ccccc1S2 (stereo not given) [Thioridazine hydrochloride]")
1
>>> data_value("O=C1NCC2(CCN(CCc3ccccc3)CC2)O1 [Fenspiride hydrochloride]")
0.947
>>> data_value("NCc1ccccc1CC(=O)N[C@@H]1C(=O)N2C(C(=O)O)=C(CSc3nnnn3CC(=O)O)CS[C@H]12 [Ceforanide]")
0.0434
>>> data_value("CC1(C)O[C@@H]2C[C@H]3[C@@H]4C[C@H](F)C5=CC(=O)C=C[C@]5(C)[C@@]4(F)[C@@H](O)C[C@]3(C)[C@]2(C(=O)CO)O1 [Fluocinolone acetonide]")
1.01
>>> data_value("CCN(CC)CCNC(=O)c1ccc(N)cc1 [Procainamide hydrochloride]")
0.99

Respectfully, I request growth AUC normalised to DMSO control for each entry included below.
1. CN1CCCN(C(c2ccccc2)c2ccc(Cl)cc2)CC1 (stereo not given) [Homochlorcyclizine dihydrochloride]
2. CCOC(=O)Nc1ccc2c(c1)N(C(=O)CCN1CCOCC1)c1ccccc1S2 [Moricizine hydrochloride]

0.938
0.997
